- assay_system: QR2 (Homo sapiens)
- Sequence (P16083 1-231): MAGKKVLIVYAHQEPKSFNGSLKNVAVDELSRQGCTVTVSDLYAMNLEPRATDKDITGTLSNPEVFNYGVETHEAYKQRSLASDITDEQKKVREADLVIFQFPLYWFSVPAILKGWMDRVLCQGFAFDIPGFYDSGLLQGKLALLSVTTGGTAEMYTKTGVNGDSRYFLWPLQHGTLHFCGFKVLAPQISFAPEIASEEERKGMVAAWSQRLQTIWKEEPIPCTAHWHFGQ
- assay_summary: QR2 enzymatic activity assay (menadione/BNAH), fluorescence readout
- Assay type: biochemical
- Design: purchased Sigma-Aldrich
result_type: IC50 (µM)

Check out these entries, answers already filled in.
- Cc1cc(-c2ccc(C)c(S(=O)(=O)N3CCCCCC3)c2)[nH]n1 [PCM-0213795]: 0.64
- Cc1cc(-c2ccc(C)c(S(=O)(=O)N3CCCC3)c2)n[nH]1 [PCM-0213806]: 0.17
- Cc1cccn2cc(-c3cccc(S(=O)(=O)N4CCN(C(=O)c5ccco5)CC4)c3)nc12 [PCM-0213792]: 0.01
- Cc1cc(-c2ccc(C)c(S(=O)(=O)NCc3cccnc3)c2)n[nH]1 [PCM-0213811]: 3.16
- Cc1cc(-c2ccc(C)c(S(=O)(=O)NCCCN3CCCC3=O)c2)on1 [PCM-0184891]: 3.26

1: Cc1cccn2cc(-c3cccc(S(=O)(=O)NCc4cccnc4)c3)nc12 [PCM-0213814]
2: Cc1cc(-c2ccc(C)c(S(=O)(=O)N3CCN(C(=O)c4ccco4)CC3)c2)n[nH]1 [PCM-0213791]
Q) Which has the smaller recorded IC50, 1 or 2 ? Your choice should be expressed through its label.
A) 1
(1: 0.02 µM, 2: 0.26 µM)

* * *

IC50: recorded values
- assay_system: QR1 (NQO1) (Homo sapiens, UniProt P15559)
- Construct: purchased Sigma-Aldrich
- Sequence (P15559 whole entry): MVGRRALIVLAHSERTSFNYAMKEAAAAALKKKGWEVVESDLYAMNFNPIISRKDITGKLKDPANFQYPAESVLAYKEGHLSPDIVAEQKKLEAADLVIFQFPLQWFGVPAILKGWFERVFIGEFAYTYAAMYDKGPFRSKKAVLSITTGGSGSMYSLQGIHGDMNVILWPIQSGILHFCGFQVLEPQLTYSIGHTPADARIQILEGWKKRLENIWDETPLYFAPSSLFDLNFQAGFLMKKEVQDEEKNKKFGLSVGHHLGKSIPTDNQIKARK
- assay_summary: Selectivity assay with QR1 in place of QR2, fluorescence readout
- Format: biochemical

• Cc1nc(-c2ccc(C)c(S(=O)(=O)N3CCN(C(=O)c4ccco4)CC3)c2)cs1 [PCM-0197066] = > 9.99 µM
• Cc1ccn2cc(-c3cccc(S(=O)(=O)N4CCCC4)c3)nc2c1 [PCM-0124535] = > 9.99 µM
• COc1ccc(S(=O)(=O)N2CCC(NC(=O)N3CCCC3)CC2)cc1 [PCM-0154188] = > 9.9 µM
• CN(C)S(=O)(=O)c1cccc2ccccc12 [PCM-0071569] = > 9.8 µM
• Cc1cccn2cc(-c3cccc(S(=O)(=O)N(C)C)c3)nc12 [PCM-0213804] = > 9.99 µM

Q) Dear colleague, I am looking for the recorded IC50 of the following molecule: COc1ccc(OC)c(S(=O)(=O)Nc2cccc(-c3cn4c(C)csc4n3)c2)c1 [PCM-0121306]
A) 8.77 µM

Q) Give its IC50 value. Item: Cc1cc(-c2ccc(C)c(S(=O)(=O)NCCCN3CCCC3=O)c2)n[nH]1 [PCM-0213815]
A) > 9.99 µM

Q) Returns the measured IC50 for the input molecule. Input: Cc1cccn2cc(-c3cccc(S(=O)(=O)Nc4ccc(Cl)cc4)c3)nc12 [PCM-0213788]
A) > 9.99 µM

* * *

// reported IC50 per item
- assay_system: QR2 (Homo sapiens)
- Sequence (P16083 1-231): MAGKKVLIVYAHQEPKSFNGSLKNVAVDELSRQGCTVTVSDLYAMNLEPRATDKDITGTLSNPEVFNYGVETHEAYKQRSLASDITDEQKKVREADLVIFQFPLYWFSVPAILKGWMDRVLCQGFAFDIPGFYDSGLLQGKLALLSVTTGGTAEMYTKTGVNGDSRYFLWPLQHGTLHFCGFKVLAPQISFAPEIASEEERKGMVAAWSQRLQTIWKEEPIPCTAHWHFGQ
- assay_summary: QR2 enzymatic activity assay (menadione/BNAH), fluorescence readout
- Format: biochemical
- Design: purchased Sigma-Aldrich

* CCOC(=O)c1c(S(=O)(=O)N2CCN(Cc3ccccc3)CC2)c(C)n(C)c1C | > 9.9 µM
* CS(=O)(=O)N(Cc1cccnc1)C1CN(C(=O)c2c[nH]c3ccccc23)C1 | > 9.9 µM
* Cc1ccc(-c2cn3cccc(C)c3n2)cc1S(=O)(=O)N1CCCC1 | 0.01 µM

Now look at this entry.
Q) Requested field: IC50. Item: `CCc1noc(-c2c(S(=O)(=O)NCc3cccc(OC)c3)c(C)n(C)c2C)n1`
A) > 9.9 µM

* * *

Form field: IC50 (one value per entry).
- assay_system: QR1 (NQO1) (Homo sapiens, UniProt P15559)
- Construct: purchased Sigma-Aldrich
- assay_summary: Selectivity assay with QR1 in place of QR2, fluorescence readout
- Type: biochemical
Where a name gives a salt, the structure may show the parent alone.

• Cc1ccn2cc(-c3cccc(S(=O)(=O)NCc4cccnc4)c3)nc2c1 = > 9.99 µM
• Cc1cc(-c2ccc(C)c(S(=O)(=O)N3CCCC3)c2)n[nH]1 = > 9.99 µM
• CCCN(CCC)S(=O)(=O)c1cccc(-c2cn3cccc(C)c3n2)c1 = > 9.9 µM
• Cc1ccn2cc(-c3cccc(S(=O)(=O)N4CC(C)CC(C)C4)c3)nc2c1 (stereo not drawn) = > 9.9 µM

Q) What measured IC50 goes with Cc1ccc(-c2cn3cccc(C)c3n2)cc1S(=O)(=O)N1CCNCC1 [YB-537, hydrochloride] ?
A) 18.4 µM

Q) So what's the measured IC50 for this one? `O=S(=O)(Nc1cccc(-c2cn3ccsc3n2)c1)c1ccc2c(c1)OCCO2`
A) < 0.83 µM

Q) Sample `Cc1nc(-c2ccc(C)c(S(=O)(=O)N3CCCCCC3)c2)cs1` — what was its IC50?
A) > 9.99 µM

Q) Consider the compound shown here: `Cc1nc(-c2ccc(C)c(S(=O)(=O)N3CCCC3)c2)cs1` What is its recorded IC50?
A) > 9.99 µM

Q) What measured IC50 goes with `CCOC(=O)c1c(S(=O)(=O)N(CC)c2cccc(C)c2)c(C)n(C)c1C` ?
A) 5.39 µM

* * *

- assay_system: QR2 (Homo sapiens)
- Sequence (P16083 1-231): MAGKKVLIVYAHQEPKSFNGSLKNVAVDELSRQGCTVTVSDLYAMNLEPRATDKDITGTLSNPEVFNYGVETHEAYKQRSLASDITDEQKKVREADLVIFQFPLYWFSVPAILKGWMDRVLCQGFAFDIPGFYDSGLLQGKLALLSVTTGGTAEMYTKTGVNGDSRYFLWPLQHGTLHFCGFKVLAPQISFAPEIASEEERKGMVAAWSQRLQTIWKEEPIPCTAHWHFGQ
- assay_summary: QR2 enzymatic activity assay (menadione/BNAH), absorbance readout at 350 nm
- Format: biochemical
- Parameters: purchased Sigma-Aldrich
result_type: IC50 (µM)

Examples with answers:
- Cc1cccn2cc(-c3cccc(S(=O)(=O)N(C)C)c3)nc12: 0.02
- Cc1cc(-c2ccc(C)c(S(=O)(=O)N3CCCC3)c2)n[nH]1: 0.05
- COc1cc(Cl)c(NS(=O)(=O)c2ccc(-c3cc(C)no3)cc2OC)c(OC)c1: 2.73
- Cc1cc(-c2ccc(C)c(S(=O)(=O)NCCCN3CCCC3=O)c2)on1: 2.37
- CCCn1cc(C2=CCN(S(=O)(=O)Cc3ccccc3)CC2)c2cccnc21: 9.05

a: Cc1cc(-c2ccc(C)c(S(=O)(=O)NCc3cccnc3)c2)n[nH]1
b: Cc1cc(-c2ccc(C)c(S(=O)(=O)N3CCC(C)CC3)c2)on1
Q) # compare IC50 for a vs b ; return the one with the smaller value Respond with the label that goes with your answer.
A) a
(a: 0.98 µM, b: 1.83 µM)

* * *

- assay_system: QR1 (NQO1) (Homo sapiens, UniProt P15559)
- Construct: purchased Sigma-Aldrich
- assay_summary: Selectivity assay with QR1 in place of QR2, fluorescence readout
- Format: biochemical
We begin with a simple list: items and their reported IC50.

Answered cases to consult:
* CNC(=O)N1CCc2cc(S(=O)(=O)N3CCc4ccccc43)ccc21 | > 9.9 µM
* Cc1nc(-c2ccc(C)c(S(=O)(=O)N(C)C)c2)cs1 | > 9.99 µM
* Cc1ccc(-c2nnc(-c3ccccc3)o2)cc1S(=O)(=O)N(C)C | > 9.99 µM
* Cc1ccc(-c2cn3cccc(C)c3n2)cc1S(=O)(=O)N1CCCC1 | > 9.99 µM
* Cc1cc(-c2ccc(C)c(S(=O)(=O)N3CCCC3)c2)on1 | > 9.99 µM
* Cc1cccn2cc(-c3cccc(S(=O)(=O)NCc4cccnc4)c3)nc12 | > 9.99 µM
* Cc1ccc(-c2nnc(-c3ccccc3)o2)cc1S(=O)(=O)N1CCC(C)CC1 | > 9.99 µM
* CCN(CC)S(=O)(=O)c1cc(-c2nnc(-c3ccccc3)o2)ccc1C | > 9.9 µM

Note: attention shifts to another entry.
Q) Please look up its IC50: `CCOC(=O)c1c(S(=O)(=O)N(CCC(C)C)Cc2ccco2)c(C)n(C)c1C`
A) 3.79 µM
